Hey, just so you know, these numbers are from the DeepSol protein solubility set.

Experiment Description: soluble on expression in E. coli; label from the status in PepcDB or PDB records
Measured Quantity: soluble on expression in E. coli

SLKAKILFVGPCESGKTVLANFLTESSDITEYNPTQGVRILEFENPHVTSNNKGTGCEFELWDCGGDSKFESCWPALMKDAHGVVIVFNADIPSHLKEIEMWYSCFVQQQFLQDSHCMLVAHHKPGSGGERGSLALSPPLNKLKLVHSNLEEDPEEVRVEFIKYLKSIINSMSESRDREEMLIIT :: soluble
MSLKAIAVDMDGTFLDSKKTYDKPRFEAIFTELRNRDITFIAASGNQYAKLKSIFGDRDMYFISENGAVIYKGNELYNYKSFNRQVFQQVVDYLNMNQSIDQLVICGLKSAYILKHTSEAFKEDTRFYYHQLKEIDSLQQLPEDDYVKIAFNINRETHPNVDEEVATQFSNDIKLVSSGHDSIDIIMPNMTKGQALKRLLDKWEMSPSELMAFGDANNDKDMLAFAKHSYVMENSHDEELFNIASAVAPSNDKQGVLTIIEQEVLNKEGHHHHHH :: soluble
MRISSLLFLTFLAGIVQAQDFLAMFKPFLGGGGGGGNPFANPQAIGGLFQQFAGGNGGGFGQLLAGAMAPKPAPAAAGPRSAPAPTNEDYNTDIDVPAPKAKARAAPTPRRAQGDDDDNIDMSLTRLG :: not soluble
MASGKVRCTRKLRSWIVEQVESGHFPGVCWDDAAKTMFRIPWKHAGKQDFREDQDAAIFKAWALFKEKHKDGDIGHPAVWKTRLRCALNKSSEFEEVPERGRMDVAEPYKVYRILPAGTLPNQPRNQKSPCKRSISCVSPEREENMENGRTNGVVNHSDSGSNIGGGGNGSNRSDSNSNCNSELEEGAGTTEATIREDPVFLEHQLPLNSDYSLLLTFIYGGRVVGKTQVHSLDCRLVAERSDSESSMEQVEFPKPDPLEPTQHLLNQLDRGVLVASNSRGLFVQRLCPIPISWNAPEAPPGPGPHLLPSNKCVELFKTTYFCRDLAQYFQGQGPPPKFQATLHFWEESPGSSHSQENLITVQMEQAFARHLLEKIPEEEKAALFLLQHTEQSPSALGH :: soluble
MGDSAPARIDTLEIKLLFAGDIMTHGPQIESAKCEGGRVYDFSSSFDTLASRIGAADLAIGNLETTFAGAPYSGYPTFSSPDAMGEALKNAGFDVLTTANNHTADKGKKGIIRTLDMLDSLGIAHTGSYRDIFDRDKMTPLILEVKGVRIAILAYTYGTNGMPVPAPTWVDPIDTVMIKKDLLRADSLGADYRIVQIHWGIEYRKEPDSEQLELARKLHRYGADAIIGSHPHVVQGSQWLKSDSKTSFVIYSMGNFISNQRKPAATRGGMLLSLTLRKVGDRITTHPDYQYVFVNKRTPQGKRVYRLLPVDPFSSDTLPSLPPEEQRDYKEFAKYYQMIPLVLIEREDNRIRNRLQVSQRAFLEHHHHHH :: not soluble

What soluble on expression in E. coli value was documented for this sequence, MAHHHHHHMERGKNPMEAELNRAPQEVSLSAFSLLFSEIVQYCLWKSKRGYRIEDSLHEMGLRVGYKLNEYLPYKNKTKRCVNIISILTFLSKHLWKYLFQHSSDLLKSQDSIYEYMLCDKNILLNRFISVPKDYGNINCASFAAGIVEGMLCSAEFQAEVTAHTVYEDEKNFNTTIFIKFYPEVVNRERGEK ?
not soluble
